- tested_on: T1, Abz-LPETGK(Dnp)-CONH2
- T1 chain: LPETGK
Would you kindly list kcat/Km LPETG for each of these proteins?
Supply the numeric figure in M⁻¹ s⁻¹, leaving out any unit text.

Query string: Recorded kcat/Km LPETG for srtA D165A (protein) MQAKPQIPKDKSKVAGYIEIPDADIKEPVYPGPATPEQLNRGVSFAEENESLDDQNISIAGHTFIDRPNYQFTNLKAAKKGSMVYFKVGNETRKYKMTSIRDVKPTAVEVLDEQKGKDKQLTLITCDDYNEKTGVWEKRKIFVATEVKLEHHHHHH , please?
Result string: 700

Query string: Which kcat/Km LPETG is reported for this protein? P94S/D165A (clone 4.3) (protein) MQAKPQIPKDKSKVAGYIEIPDADIKEPVYPGPATSEQLNRGVSFAEENESLDDQNISIAGHTFIDRPNYQFTNLKAAKKGSMVYFKVGNETRKYKMTSIRDVKPTAVEVLDEQKGKDKQLTLITCDDYNEKTGVWEKRKIFVATEVKLEHHHHHH
Result string: 2600

Query string: Data request, read-out kcat/Km LPETG, for P94S/D160N/D165A sortase A (protein) MQAKPQIPKDKSKVAGYIEIPDADIKEPVYPGPATSEQLNRGVSFAEENESLDDQNISIAGHTFIDRPNYQFTNLKAAKKGSMVYFKVGNETRKYKMTSIRNVKPTAVEVLDEQKGKDKQLTLITCDDYNEKTGVWEKRKIFVATEVKLEHHHHHH
Result string: 7500
